Target: T1, human IL-23 (human, UniProt Q9NPF7 20-189; P29460 23-328)
T1 construct: Heterodimer of p19 and p40; also called hIL-23
T1 sequence 1: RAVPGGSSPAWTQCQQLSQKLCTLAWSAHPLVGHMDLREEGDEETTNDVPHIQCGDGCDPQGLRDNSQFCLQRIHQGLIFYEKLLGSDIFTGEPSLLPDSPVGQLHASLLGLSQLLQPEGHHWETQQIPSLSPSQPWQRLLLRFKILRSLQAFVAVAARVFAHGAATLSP
T1 sequence 2: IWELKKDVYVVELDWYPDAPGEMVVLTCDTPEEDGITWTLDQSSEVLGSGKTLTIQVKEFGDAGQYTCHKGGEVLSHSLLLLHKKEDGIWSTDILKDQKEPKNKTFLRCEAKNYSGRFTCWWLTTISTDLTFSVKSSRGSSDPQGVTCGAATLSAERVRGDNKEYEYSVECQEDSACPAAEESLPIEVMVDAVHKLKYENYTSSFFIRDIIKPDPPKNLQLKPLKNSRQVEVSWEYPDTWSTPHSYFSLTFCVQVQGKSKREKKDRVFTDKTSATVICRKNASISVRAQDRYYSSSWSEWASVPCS
Assay: SPR Biacore T100, mAb from HEK supernatant captured on anti-human IgG, human IL-23 64-0.062 nM
Procedure: An anti-human IgG (Biacore BR-1008-39) was immobilised on a Biacore CM5 chip by primary amine coupling in accordance with the manufacturer's instructions. Anti IL-23 antibodies were captured on this surface and after a period of stabilisation, IL-23 (cyno or human) was passed over the antibody captured surface and a binding sensorgram was obtained. […] Data was analysed using the 1:1 model using the software inherent to the Biacore T100. […]
observed.property: koff (s⁻¹)
Answer with a number only, understood to be in s⁻¹.

Consider the worked cases shown below.
{"binder": "A3M0 (antibody, human IgG1, kappa, V domains shown, human gamma1 and kappa constant regions; Tested as HEK supernatant and as purified antibody; also called A3M0 purified) VH: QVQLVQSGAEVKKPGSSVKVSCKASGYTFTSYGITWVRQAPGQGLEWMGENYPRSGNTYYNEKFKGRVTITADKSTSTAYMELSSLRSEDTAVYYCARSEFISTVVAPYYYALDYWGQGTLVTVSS VL: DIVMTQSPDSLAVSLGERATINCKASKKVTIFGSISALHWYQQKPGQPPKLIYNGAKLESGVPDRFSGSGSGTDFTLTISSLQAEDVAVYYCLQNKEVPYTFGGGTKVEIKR", "koff / s⁻¹": 0.000239}
{"binder": "A3M18 (antibody, human IgG1, kappa, V domains shown) VH: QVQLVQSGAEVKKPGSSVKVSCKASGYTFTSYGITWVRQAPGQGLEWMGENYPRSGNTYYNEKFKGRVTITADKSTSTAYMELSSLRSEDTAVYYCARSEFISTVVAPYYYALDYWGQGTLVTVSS VL: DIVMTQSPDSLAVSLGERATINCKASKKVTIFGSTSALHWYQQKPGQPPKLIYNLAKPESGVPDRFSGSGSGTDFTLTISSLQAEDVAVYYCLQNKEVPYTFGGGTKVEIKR", "koff / s⁻¹": 0.000115}
{"binder": "A5M21 (antibody, human IgG1, kappa, V domains shown) VH: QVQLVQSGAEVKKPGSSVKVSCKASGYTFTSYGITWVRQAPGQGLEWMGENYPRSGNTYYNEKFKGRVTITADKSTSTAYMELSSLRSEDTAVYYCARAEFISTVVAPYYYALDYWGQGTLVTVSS VL: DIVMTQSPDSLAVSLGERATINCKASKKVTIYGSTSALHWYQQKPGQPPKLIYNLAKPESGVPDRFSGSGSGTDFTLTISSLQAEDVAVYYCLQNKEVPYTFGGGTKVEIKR", "koff / s⁻¹": 0.000113}

Consider the record given below.
Look up and report measured koff for this entry: A24AM18 (antibody, human IgG1, kappa, V domains shown) VH: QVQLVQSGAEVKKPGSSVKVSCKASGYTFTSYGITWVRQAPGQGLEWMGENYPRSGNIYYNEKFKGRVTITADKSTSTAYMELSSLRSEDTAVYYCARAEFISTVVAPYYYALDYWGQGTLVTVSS VL: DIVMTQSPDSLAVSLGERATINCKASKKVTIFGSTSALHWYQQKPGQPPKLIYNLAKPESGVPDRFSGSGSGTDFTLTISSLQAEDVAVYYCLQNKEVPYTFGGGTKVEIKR
0.000122
